System: Alopec. myosur.
Experiment: postemergence application in the greenhouse, % damage
Type: in vivo
Conditions: 2.0 kg/ha
RECORDED METRIC: % damage (%)
Numbers only, in %.

Some solved entries appear below for comparison.
> print(dat)
                                   compound  readout.unit  observed.result
1           Cc1cccc(C)c1N(Cn1cccn1)C(=O)CCl             %               90
2          CCc1cccc(C)c1N(Cn1cncn1)C(=O)CCl             %               70
3  CCc1cccc(CC)c1N(COC)C(=O)CCl [prior art, reference compound]             %               60

Let us move to another entry and its % damage.
compound CCc1cccc(C)c1N(Cn1ccc(C)n1)C(=O)CCl , % damage observed: 90

====

System: Matric. spp.
Assay: postemergence application in the greenhouse, % damage
Format: in vivo
Conditions: 1.0 kg/ha
RECORDED METRIC: % damage
// unit must come after the numeric part

> print(dat)
                                   compound  observed.result
1       CCc1cccc(C)c1N(Cn1ccc(C)n1)C(=O)CCl              80%
2  CCc1cccc(CC)c1N(COC)C(=O)CCl [prior art, reference compound]              50%
3          CCc1cccc(C)c1N(Cn1cncn1)C(=O)CCl              30%

compound Cc1cccc(C)c1N(Cn1cccn1)C(=O)CCl , % damage observed: 95%

====

Assignment: determine reported % damage for the given molecules.
Test system: Glyc. max
Assay: preemergence treatment in the greenhouse, % damage
Format: in vivo, Glycine max
Settings: 2.0 kg/ha
Numbers only, in %.

Some solved entries appear below for comparison.
> print(dat)
                                   molecule  target.system  observed.result
1          CCc1cccc(C)c1N(Cn1cncn1)C(=O)CCl      Glyc. max                0
2  CCc1cccc(C)c1N(Cn1nc(C)c(Cl)c1C)C(=O)CCl      Glyc. max                0
3     CCc1cccc(CC)c1N(Cn1cc(OC)cn1)C(=O)CCl      Glyc. max                0
4         Cc1cc(C)n(CN(C(=O)CCl)c2ccccc2)n1      Glyc. max                0
5          Cc1ccc(Cl)cc1N(Cn1cccn1)C(=O)CCl      Glyc. max               10
6   Cc1cccc(C)c1N(Cn1nc(C)c(Cl)c1C)C(=O)CCl      Glyc. max               10

Parameter requested: % damage. Apply to each item below.
1. CCc1cccc(CC)c1N(COC)C(=O)CCl [bekannt, reference compound]
2. CCc1cccc(CC)c1N(Cn1cncn1)C(=O)CCl
3. Cc1ccn(CN(C(=O)CCl)c2ccccc2C(C)C)n1
4. CCc1cccc(C)c1N(Cn1ccc(C)n1)C(=O)CCl

Ans:
0
20
20
10

Parameter requested: % damage. Apply to each item below.
1. CCc1cccc(CC)c1N(Cn1nc(C)cc1C)C(=O)CCl
2. Cc1cccc(C)c1N(Cn1cc(Cl)cn1)C(=O)CCl

Ans:
[0, 20]

# credit: patent US4593104A
